The measured values listed here are drawn from the supplement of paper PMC7125110.

B1: glmS ribozyme (parent)
chain: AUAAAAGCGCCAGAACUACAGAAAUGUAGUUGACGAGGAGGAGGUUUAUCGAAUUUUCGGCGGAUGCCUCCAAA

variants of: B1; experiment: self-cleavage kobs at 2500 uM GlcN6P; higher = faster cleavage; RNA array; conditions: with glucosamine-6-phosphate
This sample holds only a part of the variants without activity.
Examples of variants with documented self-cleavage kobs at 2500 uM GlcN6P follow.

{"PRIMARY SEQUENCE": "AUAAAAGCGCCAGAACUACAGAAAUGUAGUUGACGAGGAGGAGGUUUAUCGAAUAUUCGGCGGCUGCCUCUAAA [U55A A64C C71U]", "U": "s⁻¹", "OPERATOR": "=", "self-cleavage kobs at 2500 uM GlcN6P": "7.29e-05"}
{"PRIMARY SEQUENCE": "AUAAAAGCGCCAGACCUACAGAAAUGUAGUUAACGAGGAGGAGGUUUAUCGAAUUUUCGGCGGAUGCCACCAAA [A15C G32A U69A]", "U": "s⁻¹", "OPERATOR": "=", "self-cleavage kobs at 2500 uM GlcN6P": 0.000103}
{"PRIMARY SEQUENCE": "AUAAAAGCGCCAGAACUACAGAAAUGUAGUUGACGAUGAGGAGGUUUAUCGAAUUUUCUGCGAAUGCCUCCAAA [G37U G59U G63A]", "U": "s⁻¹", "OPERATOR": "<", "self-cleavage kobs at 2500 uM GlcN6P": "1e-05"}
{"PRIMARY SEQUENCE": "AUAAAAGCGCCAGAACUACAGAAAUGUAGUUGACGAGGAGGAGCUUUAUCGAAUUUUCGGCGGAUGCCUCCAAA [G44C]", "U": "s⁻¹", "OPERATOR": "=", "self-cleavage kobs at 2500 uM GlcN6P": 0.000127}
{"PRIMARY SEQUENCE": "AUAAAAGCGCCUGAACUACAGAAAUGUAGUUGUCGAGGAGGAGGUUUAUCGAAUUUUCGGCGGAUGCCUCCAAA [A12U A33U]", "U": "s⁻¹", "OPERATOR": "=", "self-cleavage kobs at 2500 uM GlcN6P": 0.00015}
{"PRIMARY SEQUENCE": "AUAAAAGCGCGAGAACUACAGAAAUGUAGUCGACGAGGAGGAGGUUUAUCGAAUUUUCGGCGGAUGCCUCUAAA [C11G U31C C71U]", "U": "s⁻¹", "OPERATOR": "<", "self-cleavage kobs at 2500 uM GlcN6P": "1e-05"}
{"PRIMARY SEQUENCE": "AUAAAGGCGCCAGAACUACAGAAAUGUAGUUGACGAGGAGGAGGUUUAUCGAAUUUUCGACGGAUGCCUCCAAA [A6G G60A]", "U": "s⁻¹", "OPERATOR": "<", "self-cleavage kobs at 2500 uM GlcN6P": "1e-05"}
{"PRIMARY SEQUENCE": "AUAAAAGCGCCAGAACUACAGAAAUGUAGUUGACGAGGAGGAGGUUUUUCUAAUUUUCGGCGGAGGCCUCUAAA [A48U G51U U65G C71U]", "U": "s⁻¹", "OPERATOR": "<", "self-cleavage kobs at 2500 uM GlcN6P": "1e-05"}
{"PRIMARY SEQUENCE": "AUAAAUGCGCCAGAACUACAGAAAUGUAGUUGACGAGGAGGAGGUUUAUCGAAUUUUCGGCGGAUACCUCCAAA [A6U G66A]", "U": "s⁻¹", "OPERATOR": "=", "self-cleavage kobs at 2500 uM GlcN6P": "9.12e-05"}
{"PRIMARY SEQUENCE": "AUAAAAGCGCCAGAACUACAGAAAUGUAGUUGACGAGGAGGAGGAAUAUCGAAUUUUCGGCGGAUGCCUCCAAA [U45A U46A]", "U": "s⁻¹", "OPERATOR": "=", "self-cleavage kobs at 2500 uM GlcN6P": 0.0043}
{"PRIMARY SEQUENCE": "AUAAAAGCGCCAGAACUACAGAAAUGUAGUUCACGAGGAGGAGGUUUAUCGAACUUUCGGCGUAUGCCUCCAAA [G32C U54C G63U]", "U": "s⁻¹", "OPERATOR": "<", "self-cleavage kobs at 2500 uM GlcN6P": "1e-05"}
{"PRIMARY SEQUENCE": "AUAAAAGCGCCAGAACUACAGAAAUGUAGUUGACGAGGAAGAGGUUUGUGGAAUUUUCGGCGGAUGCCUCCAAA [G40A A48G C50G]", "U": "s⁻¹", "OPERATOR": "<", "self-cleavage kobs at 2500 uM GlcN6P": "1e-05"}
